- assayed system: T1, human TFIIH p62-PH domain (residues 1–108) (human, UniProt P32780 1-108)
- T1 construct: PH domain of the p62 subunit of the general transcription factor TFIIH, human, residues 1-108; Used 15N- or 13C/15N-labelled in the NMR experiments, unlabelled when added to XPC-AF; also called pleckstrin homology (PH) domain of the p62 subunit of TFIIH
- T1 sequence (looked up): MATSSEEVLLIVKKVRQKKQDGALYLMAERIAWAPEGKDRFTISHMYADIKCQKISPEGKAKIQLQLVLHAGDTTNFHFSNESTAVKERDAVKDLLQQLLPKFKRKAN
- test name: ITC; VP-ITC; 100 μM XPC peptide in the syringe (25 × 20 μl injections), 2 ml of 10 μM p62-PH in the cell; 20 °C; 20 mM potassium phosphate (pH 6.8)
- condition info: both partners purified
Non-standard residues stand in square brackets, D forms with d. No end group written: not given here. pS = N[C@@H](COP(=O)(O)O)C(=O)O
This section presents binders with their documented Kd values.

binder	Kd
EEEEESENDWEEVEELSEP (peptide, UniProt Q01831 124-142, looked up, XPC, human, residues 124-142; also called unphosphorylated XPC peptide; source: synthetic peptide, bought: Sigma Genosys Japan) [unphosphorylated peptide of human XPC (residues 124–142)]	132 nM
EEEEE[pS]ENDWEEVEELSEP (peptide, UniProt Q01831 124-142, looked up, XPC, human, residues 124-142; also called Ser129-phosphorylated XPC peptide; source: synthetic peptide, bought: Sigma Genosys Japan) [Ser129-phosphorylated peptide of human XPC (residues 124–142)]	41 nM
